# Measured Target: GST-NST2(1-184) (Arabidopsis thaliana, UniProt Q9M274 1-184)
# Sequence: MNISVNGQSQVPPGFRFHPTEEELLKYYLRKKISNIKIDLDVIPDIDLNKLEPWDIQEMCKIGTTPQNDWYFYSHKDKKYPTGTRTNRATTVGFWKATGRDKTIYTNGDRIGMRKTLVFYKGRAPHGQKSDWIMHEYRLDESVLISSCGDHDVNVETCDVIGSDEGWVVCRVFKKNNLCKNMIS
# Test: universal protein binding microarray (PBM); high values mean tight binding
# Measurement Setup: protein: recombinant; tags: GST; chain copies: 2; dsDNA, one strand shown
Decision: binding signal >= 0.2 E-score yields MET, all other cases yield NOT MET.

GAGACGTA :: MET
ATACGCCA :: MET
AGGAAAGG :: NOT MET
CGTCAAAG :: NOT MET

Please look at the following sequence next.
// inclusive: binding signal at least 0.2 E-score? input: ATACGAAA
MET

* * *

Kindly state binding signal for each of the entries shown.
# Measured Target: GST-ANAC019 NAC domain (Arabidopsis thaliana, UniProt Q9C932 14-162)
# Sequence: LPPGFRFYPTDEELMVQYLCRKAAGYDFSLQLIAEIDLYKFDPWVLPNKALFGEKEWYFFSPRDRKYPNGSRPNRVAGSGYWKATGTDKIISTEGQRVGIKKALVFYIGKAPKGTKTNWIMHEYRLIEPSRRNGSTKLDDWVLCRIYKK
# Test: universal protein binding microarray (PBM); high values mean tight binding
# Measurement Setup: protein: recombinant; tags: GST; chain copies: 2; dsDNA, one strand shown
One number for each entry, in E-score.

CACGGAAG :: 0.471
ACACGCTA :: 0.16
TGCGTAAA :: 0.205

API: the following record is the query input.
Data request, read-out binding signal, for ATTGCGTA
0.375

* * *

Kindly state binding signal for each of the entries shown.
# Measured Target: GST-WRKY1(266-371) (Arabidopsis thaliana, UniProt Q9SI37 266-371)
# Sequence (Q9SI37 266-371): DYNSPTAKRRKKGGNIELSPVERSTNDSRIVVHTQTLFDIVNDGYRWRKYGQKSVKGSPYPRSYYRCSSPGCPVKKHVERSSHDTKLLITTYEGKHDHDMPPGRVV
# Test: universal protein binding microarray (PBM); transcription factors of Arabidopsis thaliana; high values mean tight binding
# Measurement Setup: protein: recombinant; tags: GST; dsDNA, one strand shown
Your answer should be a number followed by the unit of measure.

These solved cases illustrate the format of a correct answer.
GGATTGAC :: 0.459 E-score
GACGTCAA :: 0.436 E-score
CTGACCCA :: 0.401 E-score
ATTGACCA :: 0.482 E-score
ACTAGTCA :: 0.435 E-score
GGTCAAGA :: 0.477 E-score
AGTCGTCG :: 0.432 E-score
ATTACGTC :: 0.0595 E-score

# map each sequence to its binding signal
1. GGCTTGAC
2. CGTTGACC
3. AGTTGACG

1: 0.452 E-score; 2: 0.496 E-score; 3: 0.43 E-score

# map each sequence to its binding signal
1. ATGCTGAC
2. AACGGTCA
3. TCCGTCAA
4. AAATTGAC

1: 0.41 E-score; 2: 0.435 E-score; 3: 0.412 E-score; 4: 0.45 E-score

# map each sequence to its binding signal
1. GGTTTGAC
2. ATAGGTCA
3. GGGTCAAC
4. AAAGTCGT

1: 0.483 E-score; 2: 0.409 E-score; 3: 0.493 E-score; 4: 0.429 E-score

# map each sequence to its binding signal
1. ACGCAAGA
2. ACTGGTCA
3. GATACGTA

["0.123 E-score", "0.433 E-score", "0.0663 E-score"]
